Cited source: ChEMBL document CHEMBL1201862

Tested on: UO-31
Assay: NCI tumour cell line growth inhibition, 48 h
The source made the active and inactive calls. Cut-off read from the data, not from the text of the source: active = GI50 up to about 1.1 µM and inactive = higher.
Outcome codes: active, inactive

{"COMPOUND": "c1ccc2c(c1)Sc1ccccc1N2CCCN1c2ccccc2Sc2ccccc21", "QUALITATIVE_LABEL": "inactive"}
{"COMPOUND": "CNC(=O)NCCCCC(NC(=O)OCc1ccccc1)C(=O)OCc1ccccc1 (configuration not stated)", "QUALITATIVE_LABEL": "inactive"}
{"COMPOUND": "CC/C(=N/O)C(C)C(=O)CCC(=O)Nc1ccc(Cl)cc1 (configuration not stated)", "QUALITATIVE_LABEL": "inactive"}
{"COMPOUND": "COC(=O)C(I(OS(=O)(=O)c1ccc(C)cc1)c1ccccc1)=P(c1ccccc1)(c1ccccc1)c1ccccc1", "QUALITATIVE_LABEL": "inactive"}
{"COMPOUND": "O=[N+]([O-])c1ccc(-c2nn3c(C45CC6CC(CC(C6)C4)C5)nnc3s2)c(Cl)c1", "QUALITATIVE_LABEL": "inactive"}
{"COMPOUND": "CC(=O)Nc1c(C)ccc2c1C(=O)c1ccccc1C2=O", "QUALITATIVE_LABEL": "inactive"}
{"COMPOUND": "O=C1C(Cl)C(c2ccc(Cl)cc2)N1n1cnc2ccccc2c1=O (configuration not stated)", "QUALITATIVE_LABEL": "inactive"}
{"COMPOUND": "O=C(O)CNC(=O)C(CSC(=O)OCC1c2ccccc2-c2ccccc21)NC(=O)CCC(NC(=O)OCC1c2ccccc2-c2ccccc21)C(=O)O (configuration not stated)", "QUALITATIVE_LABEL": "inactive"}
{"COMPOUND": "COC(=O)CCc1cc(OC)c2c(c1)[C@H](C(=O)OC)[C@@H](c1ccc(O)c(OC)c1)O2", "QUALITATIVE_LABEL": "inactive"}
{"COMPOUND": "COC1OC2=CCC3C(=O)NC(=O)C3C2[C@H](OCc2ccccc2)C1OCc1ccccc1 (some centres not stated)", "QUALITATIVE_LABEL": "inactive"}
{"COMPOUND": "Cc1nc2ccccc2c(=O)n1NC(=O)c1ccccn1", "QUALITATIVE_LABEL": "inactive"}
{"COMPOUND": "CC(=O)NC1C(OCc2ccccc2)OC(CO)C(O)C1OC(C)C(=O)NC(C(=O)NC(CCC(=O)NCCCCNc1c2ccccc2nc2cccc([N+](=O)[O-])c12)C(N)=O)C(C)C (configuration not stated)", "QUALITATIVE_LABEL": "inactive"}
{"COMPOUND": "CSc1ncc2c(n1)-c1ccccc1OC2N1CCCCC1 (configuration not stated)", "QUALITATIVE_LABEL": "inactive"}
{"COMPOUND": "COC(=O)C1(C)CCCC2(C)c3cc(OC)ccc3C(=O)C(Br)C12 (configuration not stated)", "QUALITATIVE_LABEL": "inactive"}
{"COMPOUND": "NC(=O)c1cc2cc(Cl)cc(Cl)c2o/c1=N\\c1ccc(F)cc1", "QUALITATIVE_LABEL": "inactive"}
{"COMPOUND": "CCOC(=O)c1nc(SC)sc1NC(=O)c1ccc(OC)cc1", "QUALITATIVE_LABEL": "inactive"}
{"COMPOUND": "CC1=CC(=O)[C@@H](O)[C@]2(C)[C@H]3[C@@]4(O)OC[C@]35[C@H]([C@@H](C)[C@H]4O)[C@@H](O)C(=O)O[C@@H]5C[C@@H]12", "QUALITATIVE_LABEL": "active"}
